Experimental target: Large T antigen (Simian virus 40)
Assay procedure: SV40 large T antigen inhibitors, biochemical (AID 1903)
Condition label: SV40 large T antigen ATPase/helicase inhibition assay; at 20 µM; active compounds read high
The whole screen tested about 310,000 compounds, of which about 1,200 (0.39%) were called active. A selection follows. Measured potencies and affinities stand elsewhere.
inhibition: recorded values
State the answer as a number, implicitly in %.

The examples below pair each entry with its known result.
Compound	Experimental target	inhibition, %
CC(C)N1C(=O)S/C(=C/c2ccc(Sc3nc4ccccc4[nH]3)o2)C1=O	Large T antigen (Simian virus 40)	7.29
O=C(NNc1c(Cl)cccc1Cl)c1c(F)cccc1Cl	Large T antigen (Simian virus 40)	9.15

Challenge: Request body: readout inhibition, system Large T antigen (Simian virus 40), query N#C/C(=C\c1ccc(Sc2nc3ccccc3[nH]2)o1)c1ccccc1 . Return the value.
Response given: 13

Challenge: Request body: readout inhibition, system Large T antigen (Simian virus 40), query COc1cc(/C=C(\C#N)C(=O)N2CCc3ccccc32)ccc1O . Return the value.
Response given: 57

Challenge: Request body: readout inhibition, system Large T antigen (Simian virus 40), query COc1ccc(CCNC(=O)CN(C)S(=O)(=O)c2ccc(Br)s2)cc1OC . Return the value.
Response given: -4.17

Challenge: Request body: readout inhibition, system Large T antigen (Simian virus 40), query COc1ccc(NC(=O)CCNC(C)=O)cc1NS(=O)(=O)c1ccc(F)cc1 . Return the value.
Response given: 3.53

Challenge: Request body: readout inhibition, system Large T antigen (Simian virus 40), query N#C/C(=C\c1ccc(O)c(O)c1)C(=O)NCCCc1ccccc1 . Return the value.
Response given: 37.7

Challenge: Request body: readout inhibition, system Large T antigen (Simian virus 40), query Cc1ccc(CN2CC(C(=O)N(C)CC(=O)Nc3cccc(F)c3)CC2=O)cc1 (stereo not drawn) . Return the value.
Response given: 25.6

Challenge: Request body: readout inhibition, system Large T antigen (Simian virus 40), query O=C(O)COc1ccc2c(c1)OCCO2 . Return the value.
Response given: -3.88

Challenge: Request body: readout inhibition, system Large T antigen (Simian virus 40), query Cn1cc(CN2CCC(n3nccc3NC(=O)Cc3ccccc3)CC2)cn1 . Return the value.
Response given: 2.67

----------
Experimental target: Large T antigen (Simian virus 40)
Assay procedure: SV40 large T antigen inhibitors, biochemical (AID 1903)
Condition label: SV40 large T antigen ATPase/helicase inhibition assay; at 20 µM; active compounds read high
Screen size: about 310,000 compounds; about 1,200 (0.39%) were called active. A selection follows. Entries with a potency or affinity are not part of this list.
Is inhibition at least 10%? Then y. If not, n.

// known answers, use as guide
Compound	Experimental target	Group
CC(C)Oc1ccc(S(=O)(=O)N2CCOCC2)cc1NC(=O)C1CCC1	Large T antigen (Simian virus 40)	n
CCN(c1ccccc1)S(=O)(=O)c1cccc(C(=O)NCC(c2ccco2)N2CCCC2)c1 (stereo not given)	Large T antigen (Simian virus 40)	y
O=C(COC(=O)Cc1ccccc1F)NNC(=O)c1ccc([N+](=O)[O-])cc1	Large T antigen (Simian virus 40)	y
COc1ccc(C(=O)NC(=S)NC(C)c2ccccc2)cc1 (stereo not given)	Large T antigen (Simian virus 40)	n
O=C(NCc1ccco1)c1sc(=S)n2c1[nH]c(=O)c1ccccc12	Large T antigen (Simian virus 40)	y
O=C(CC1SC(=O)N(c2ccccc2)C1=O)Nc1ccccc1 (stereo not given)	Large T antigen (Simian virus 40)	y
CCOc1ccc(NC(=O)COn2nnc3ccc(S(=O)(=O)N4CCOCC4)cc32)cc1	Large T antigen (Simian virus 40)	y
O=C(NC1CCCCC1)c1sc(=S)n2c1[nH]c(=O)c1ccccc12	Large T antigen (Simian virus 40)	n

Challenge: Form field: inhibition at least 10%? Entry: COC(=O)C1=C(C)N=c2s/c(=C3\C(=O)Nc4ccccc43)c(=O)n2C1c1ccccc1 (stereo not given)
Response given: y

Challenge: Form field: inhibition at least 10%? Entry: Cc1cc(NC(=O)c2nn3cccnc3c2Cl)no1
Response given: n

Challenge: Form field: inhibition at least 10%? Entry: COc1cc(/C=N\NC(=O)CNC(=O)C(c2ccccc2)c2ccccc2)ccc1O
Response given: y

Challenge: Form field: inhibition at least 10%? Entry: Cn1c(N2CCN(C(c3ccccc3)c3ccccc3)CC2)nc2ccccc21
Response given: n

Challenge: Form field: inhibition at least 10%? Entry: Cc1cc2nc3c(c(C(F)(F)F)n2n1)CCCC3
Response given: n

Challenge: Form field: inhibition at least 10%? Entry: O=C(O)c1ccc(C(=O)C(=O)c2ccccc2)cc1
Response given: y

Challenge: Form field: inhibition at least 10%? Entry: CCN1C(=O)N[C@@H](CCc2ccccc2)[C@@H](C(=O)OC)[C@H]1C
Response given: y

Challenge: Form field: inhibition at least 10%? Entry: CCOc1cc(/C=N/NC(=O)COc2nc(C)cc(COC)c2C#N)ccc1O
Response given: y

Challenge: Form field: inhibition at least 10%? Entry: COc1ccc(/C=C2\SC(=S)N(NS(=O)(=O)c3ccccc3)C2=O)c(OC)c1
Response given: y

Challenge: Form field: inhibition at least 10%? Entry: COc1ccccc1C1(O)C(=O)Nc2ccc(C)cc21 (stereo not given)
Response given: n

Challenge: Form field: inhibition at least 10%? Entry: Cc1ccc2c(c1)N(C(=O)CCC(=O)N1CCCCC1)CCO2
Response given: n

----------
inhibition: recorded values
Experimental target: Large T antigen (Simian virus 40)
Assay procedure: SV40 large T antigen inhibitors, biochemical (AID 1903)
Condition label: SV40 large T antigen ATPase/helicase inhibition assay; at 20 µM; active compounds read high
The whole screen tested about 310,000 compounds, of which about 1,200 (0.39%) were called active. Not all results are given here. Results with a measured potency or affinity are listed apart.
State the answer as a number, implicitly in %.

Compound	Units	inhibition
O=c1c2ccccc2[nH]c2ccccc12	%	7.79
CCCc1nnc(NC(=O)CCC(=O)N2CCCCC2CC)s1 (centres undefined)	%	6.09
COc1cc(Cl)c(C)cc1Nc1ncccn1	%	5.51
CCN(CC(=O)NC(=O)NC1CCCC1)Cc1ccccc1	%	14.2

Alright, here's another compound for you.
Challenge: Report inhibition for Nc1nc(-c2ccccc2)c(-c2ccc([N+](=O)[O-])cc2)s1 please.
Response given: 2.8

----------
inhibition: recorded values
Experimental target: Large T antigen (Simian virus 40) (UniProt P03070)
Sequence (P03070 whole entry, looked up): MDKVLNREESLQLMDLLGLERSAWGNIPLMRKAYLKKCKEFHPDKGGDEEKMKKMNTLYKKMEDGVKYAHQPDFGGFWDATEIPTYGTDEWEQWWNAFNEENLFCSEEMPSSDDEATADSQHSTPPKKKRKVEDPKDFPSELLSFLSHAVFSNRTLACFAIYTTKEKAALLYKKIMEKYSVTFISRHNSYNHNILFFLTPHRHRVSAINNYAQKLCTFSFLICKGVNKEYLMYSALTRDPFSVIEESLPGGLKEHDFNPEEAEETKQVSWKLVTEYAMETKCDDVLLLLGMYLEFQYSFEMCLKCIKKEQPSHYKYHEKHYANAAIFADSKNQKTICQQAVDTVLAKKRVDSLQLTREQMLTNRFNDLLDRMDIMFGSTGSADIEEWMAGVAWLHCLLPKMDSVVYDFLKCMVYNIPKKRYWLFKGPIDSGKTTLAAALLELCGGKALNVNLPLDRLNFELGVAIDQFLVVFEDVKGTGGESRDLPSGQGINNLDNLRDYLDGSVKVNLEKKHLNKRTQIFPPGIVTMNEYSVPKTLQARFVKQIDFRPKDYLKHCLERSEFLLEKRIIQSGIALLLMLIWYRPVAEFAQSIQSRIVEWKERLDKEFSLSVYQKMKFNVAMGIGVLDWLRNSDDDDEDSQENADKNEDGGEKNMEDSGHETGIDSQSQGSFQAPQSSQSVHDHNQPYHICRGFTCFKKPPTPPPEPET
Assay procedure: SV40 large T antigen inhibitors, biochemical (AID 1903)
Condition label: SV40 large T antigen ATPase/helicase inhibition assay; at 20 µM; active compounds read high
In all, about 310,000 compounds went through this assay and about 1,200 (0.39%) were called active. Not all results are given here. Results with a measured potency or affinity are listed apart.
State the answer as a number, implicitly in %.

Compound	Experimental target	Units	inhibition
CCN(CC)C(=O)C[n+]1ccc(C(N)=O)cc1	Large T antigen (Simian virus 40) (UniProt P03070)	%	4.68

Challenge: Report inhibition for O=C1NC(=S)S/C1=C/c1ccc(OC(=O)c2ccco2)cc1 please.
Response given: 12

Challenge: Report inhibition for CCN(CC)C(=O)c1c(-c2ccccc2)oc2ccc(O)cc12 please.
Response given: 13.9

Challenge: Report inhibition for N#C/C(=C\c1cccc(O)c1)C(=O)N1CCCCC1 please.
Response given: 13.5

----------
Experimental target: Large T antigen (Simian virus 40)
Assay procedure: SV40 large T antigen inhibitors, biochemical (AID 1903)
Condition label: SV40 large T antigen ATPase/helicase inhibition assay; at 20 µM; active compounds read high
Screen size: about 310,000 compounds; about 1,200 (0.39%) were called active. The list is a sample of the results. Entries with a potency or affinity are not part of this list.
inhibition: recorded values
State the answer as a number, implicitly in %.

The examples below pair each entry with its known result.
Compound	Units	inhibition
COc1ccc(OC(=O)Nc2ccc([N+](=O)[O-])cc2OC)cc1	%	0.1
CC(=O)c1c(C)[nH]c(C(=O)OCc2c(F)cccc2Cl)c1C	%	20.8
O=C(/C=C/c1ccc(O)c(O)c1)OCCc1ccccc1	%	37.9
COc1ccc(/C=C(\C#N)C(=O)NC(C)c2ccccc2)cc1O (stereo not drawn)	%	4.31
CC1CCCN(C(=O)N2c3ccccc3Sc3ccccc32)C1 (stereo not drawn)	%	6.24

Challenge: Request body: readout inhibition, system Large T antigen (Simian virus 40), query COc1ccc(S(=O)(=O)Nc2c(C(=O)O)[nH]c3ccccc23)cc1 . Return the value.
Response given: 11.7

Challenge: Request body: readout inhibition, system Large T antigen (Simian virus 40), query O=C(CSCC(=O)N1CCCCC1)OCC(=O)c1c[nH]c2ccccc12 . Return the value.
Response given: 7.84

Challenge: Request body: readout inhibition, system Large T antigen (Simian virus 40), query O=C1NC(=S)N/C1=C\c1ccccc1OCc1ccc(C(=O)O)cc1 . Return the value.
Response given: 11.5
